Provide the recorded IC50 for the entries that follow.
# method.description: Anticancer activity against human M85 cells after 48 hrs by MTT assay
# Format: functional, cell-based
# condition.label: Homo sapiens, M85, 48 h

In: // lookup IC50 for COC(=O)[C@H](Cc1c[nH]c2ccccc12)N/C=C1\C(=O)C(O)=C(C(C)C)c2cc(C)c(-c3c(C)cc4c(c3O)/C(=C/N[C@@H](Cc3c[nH]c5ccccc35)C(=O)OC)C(=O)C(O)=C4C(C)C)c(O)c21 (stereo in doubt; 9a)
Out: > 80 µM

In: // lookup IC50 for COc1c(OC)c2c3c(c(-c4c(C)cc5c(C(C)C)c(OC)c(OC)c6c5c4OC6OC)c(C)cc3c1C(C)C)OC2OC (stereo not drawn) [(-)-GOSSYPOL HEXAMETHYL ETHER]
Out: > 80 µM

In: // lookup IC50 for Cc1cc2c(c(O)c1-c1c(C)cc3c(c1O)/C(=C/Nc1ccc(Br)cc1)C(=O)C(O)=C3C(C)C)/C(=C/Nc1ccc(Br)cc1)C(=O)C(O)=C2C(C)C (stereo in doubt; 6a)
Out: > 80 µM
